These data points were gathered from the Deep4Chem optical property database.

# EXPERIMENT_SUMMARY: photoluminescence quantum yield (fraction); solvent given as SMILES
# CONDITION_INFO: in CCCCCC

COMPOUND: CCC1=C(C)C2=Cc3c4ccccc4c4n3[B-](c3ccc5cc6ccccc6cc5c3)(Oc3ccccc3-4)[N+]2=C1C (centres undefined)
photoluminescence quantum yield: 0.75
//
COMPOUND: C(=C\c1ccc2ccccc2c1)/c1ccc(Nc2ccccc2)cc1
photoluminescence quantum yield: 0.46
//
COMPOUND: F[B-]1(F)n2c(nc(Br)c2Br)-c2cccc[n+]21
photoluminescence quantum yield: 0.45
//
COMPOUND: CC(C)[Si](C#Cc1c2cc3ccccc3cc2c(C#C[Si](C(C)C)(C(C)C)C(C)C)c2nc3cc4c(cc3nc12)C1c2ccccc2C4c2ccccc21)(C(C)C)C(C)C
photoluminescence quantum yield: 0.45
//
COMPOUND: CC(=O)N(Cc1ccccn1)c1c2ccccc2c2c3c(cccc13)C(=O)N(Cc1ccccn1)C2=O
photoluminescence quantum yield: 0.59
//
COMPOUND: c1ccc(-c2cc(-c3ccc(-c4nc(-c5ccccn5)c(-c5ccccn5)[nH]4)cc3)cc(-c3ccccn3)n2)nc1
photoluminescence quantum yield: 0.006
//
COMPOUND: F[B-]1(F)n2c(c3cccc4cccc2c43)=Nc2cccc[n+]21
photoluminescence quantum yield: 0.99
//
COMPOUND: COc1ccc(-n2c(C)ccc2C)cc1
photoluminescence quantum yield: 0.024
//
COMPOUND: CC(C)(C)c1ccc2c(c1)sc1[n+]2[B-](F)(F)n2c(c3cccc4cccc2c43)=N1
photoluminescence quantum yield: 0.87
